B1: Azoarcus group I ribozyme (parent)
chain: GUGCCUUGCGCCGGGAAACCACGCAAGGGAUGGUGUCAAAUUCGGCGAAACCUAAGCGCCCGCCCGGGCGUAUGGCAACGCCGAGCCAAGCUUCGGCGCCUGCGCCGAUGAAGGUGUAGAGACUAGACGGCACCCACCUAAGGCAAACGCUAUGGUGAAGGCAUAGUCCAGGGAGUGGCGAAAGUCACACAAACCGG

Variants of: B1
Assay: reverse-splicing fitness (ratio to wild type); higher = more active; in vitro selection; Mg2+ level not given
Please provide measured reverse-splicing fitness for the entries that follow.
Number, no unit, nothing else.

Exam item: Request the reported reverse-splicing fitness associated with C82G A111C A120C A145G C150U C169U U176A
Marked response: 0.0156

Exam item: Any idea what its reverse-splicing fitness is? The variant is C82A A111U A120C A145U C169G U176A
Marked response: 0.0204

Exam item: Which reverse-splicing fitness is listed for C82U A111U A120G A145C C150G U176C ?
Marked response: 0.00719

Exam item: What reverse-splicing fitness value was documented for this variant, C82G A111G A120C A145C C169G U176G ?
Marked response: 0.0055

Exam item: Given C82U A111C A120C A145C C169G U176G , state its recorded reverse-splicing fitness.
Marked response: 0.00555

Exam item: I am curious: what reverse-splicing fitness value has been reported for C82G A111C A145C C169U U176C ?
Marked response: 0.016

Exam item: Field request: reverse-splicing fitness | item: C82A A111U C150A C169G
Marked response: 0.00884

Exam item: Report reverse-splicing fitness for C82A A111U A120U A145G C150U C169A U176A please.
Marked response: 0.00815

Exam item: Please look up its reverse-splicing fitness: C82A A111G A120U A145C C150U
Marked response: 0.0111

Exam item: Which reverse-splicing fitness is listed for C82U A111C A120G A145U C150G C169U U176C ?
Marked response: 0.0106

Exam item: # input variant: C82G A111C A120C C150A C169A U176G ; wanted: its reverse-splicing fitness
Marked response: 0.00868

Exam item: Reported reverse-splicing fitness, variant C82U A111C A145U C169A U176A : ____
Marked response: 0.0129

Exam item: State the recorded reverse-splicing fitness for this entry: C82A A120U A145C C150G C169U U176C
Marked response: 0.00254

Exam item: Fill blank: measured reverse-splicing fitness of the variant C82G A111U A120C A145C C150U C169G is ____.
Marked response: 0.00854

Exam item: So what's the measured reverse-splicing fitness for this one? C82U A111G A120U C150U C169U U176G
Marked response: 0.0019

Exam item: I'd like to know its reverse-splicing fitness. The variant in question is C82U A111C C150G U176C
Marked response: 0.0147

Exam item: // returns reported reverse-splicing fitness for input C82G A120C A145U C150U C169A U176A
Marked response: 0.015

Exam item: Look up reverse-splicing fitness: C82G C169G U176A
Marked response: 0.0155

Exam item: Field request: reverse-splicing fitness | item: C82U A111C A120C A145C C150G C169U U176G
Marked response: 0.00551

Exam item: State the recorded reverse-splicing fitness for this entry: C82A A111C A120C A145U C169A U176A
Marked response: 0.0132

Exam item: Given C82A A111G A120U A145U U176G , state its recorded reverse-splicing fitness.
Marked response: 0.00433

Exam item: Given the entry C82G A111U A120G C150A C169U U176C , report its measured reverse-splicing fitness.
Marked response: 0.0215

Exam item: Can you share its reverse-splicing fitness? I mean this variant: A111G A145G
Marked response: 0.9

Exam item: Which reverse-splicing fitness is listed for C82U A111G A120G A145U C150A C169U ?
Marked response: 0.00646

Exam item: Consider the variant A111G A120G A145U C150U C169A U176A and give its measured reverse-splicing fitness.
Marked response: 0.0314

Exam item: Which value of reverse-splicing fitness has been reported for C82U A111G A120U C150A C169A U176C in the records?
Marked response: 0.00313

Exam item: What measured reverse-splicing fitness goes with C82U A111U A120G A145G U176C ?
Marked response: 0.0197

Exam item: Give its reverse-splicing fitness value. Item: C82A A120C A145U C150G U176A
Marked response: 0.00792

Exam item: Reported reverse-splicing fitness, variant C82G C150A U176G : ____
Marked response: 0.0188

Exam item: Name the recorded reverse-splicing fitness for C82A A120U A145C C150A C169G U176G .
Marked response: 0.00139

Exam item: Consider the variant A111C A120U C150U U176A and give its measured reverse-splicing fitness.
Marked response: 0.145

Exam item: Form field: reported reverse-splicing fitness of C82A A111G A120G A145U C150G U176A
Marked response: 0.00605

Exam item: Given the entry C82U A111C A120G A145C C150U C169U U176A , report its measured reverse-splicing fitness.
Marked response: 0.0137

Exam item: Field request: reverse-splicing fitness | item: A111G A145U C150A C169A
Marked response: 0.0105

Exam item: For the variant shown here, C82G A111C A145U C150A C169U , give the reported reverse-splicing fitness.
Marked response: 0.0112

Exam item: For C82U A111C A120C C150U C169A U176A , what is its reported reverse-splicing fitness?
Marked response: 0.0151

Exam item: Given the variant C82G A111U A120U A145C C150G U176C , what is its reported reverse-splicing fitness?
Marked response: 0.00425

Exam item: Given the entry C82G A111C A120C A145G C150G U176C , report its measured reverse-splicing fitness.
Marked response: 0.0113

Exam item: So what does the record say about reverse-splicing fitness for A111U A120G C150U U176G ?
Marked response: 0.00616

Exam item: Bench note: what reverse-splicing fitness did C82G A111G A120U A145C C169U U176A show?
Marked response: 0.00244

Exam item: # lookup: reverse-splicing fitness of A145G C150U C169A U176A
Marked response: 0.0281

Exam item: Find the recorded reverse-splicing fitness belonging to C82G A111G A120G A145U C150U C169G U176C and report it.
Marked response: 0.0179

Exam item: Name the recorded reverse-splicing fitness for A111U A145G C150A C169A .
Marked response: 0.0132

Exam item: Field request: reverse-splicing fitness | item: A120U A145G C150A C169A U176A
Marked response: 0.00533

Exam item: Which reverse-splicing fitness value belongs to C82G A111G C150U C169U U176C ?
Marked response: 0.0172

Exam item: Consider the variant C82G A120C A145U C150U and give its measured reverse-splicing fitness.
Marked response: 0.11

Exam item: For the variant shown here, C82G A111U A120C A145C C150U C169A , give the reported reverse-splicing fitness.
Marked response: 0.00911

Exam item: Dear colleague, I am looking for the recorded reverse-splicing fitness of the following variant: A120U A145C C150U C169A U176C
Marked response: 0.00274

Exam item: What does the data say about its reverse-splicing fitness? Entry: C82G A111U C150U C169A
Marked response: 0.0106

Exam item: // lookup reverse-splicing fitness for C82G A120G A145C C169G U176G
Marked response: 0.00393

Exam item: I would be grateful if you could share the reported reverse-splicing fitness for C82A A111G A120G A145U C169U U176C .
Marked response: 0.0158

Exam item: Query: reverse-splicing fitness; subject: A111C A120G A145U C150A C169U U176A
Marked response: 0.0198

Exam item: Name the reported reverse-splicing fitness value associated with the variant C82G A111G A145U C150A C169U U176C
Marked response: 0.0148

Exam item: Data request, read-out reverse-splicing fitness, for A145C C150A
Marked response: 0.321

Exam item: Given the variant C82U A111C A120G A145U C150U C169G U176G , what is its reported reverse-splicing fitness?
Marked response: 0.00453

Exam item: Consider the variant shown here: C82A A120C A145G C150A C169G U176C What is its recorded reverse-splicing fitness?
Marked response: 0.0333

Exam item: Would you mind telling me what reverse-splicing fitness value was observed for C82U A145U C150A C169A U176C ?
Marked response: 0.00744

Exam item: May I ask what reverse-splicing fitness has been recorded for A111C A120G A145C C169G U176G ?
Marked response: 0.00459

Exam item: What reverse-splicing fitness value was documented for this variant, C82U A111G A120C A145C C150G C169G U176C ?
Marked response: 0.004

Exam item: Query (variant): A120C C169U U176C ; field requested: reverse-splicing fitness
Marked response: 0.174

Exam item: Give the measured reverse-splicing fitness of C82G A111C A145C C150G C169A U176C .
Marked response: 0.00828

Exam item: Give the measured reverse-splicing fitness of C82U A111G A120G C150A C169G U176A .
Marked response: 0.0186

Exam item: What value of reverse-splicing fitness has been recorded for this entry: A145U C150G C169U U176C
Marked response: 0.0406

Exam item: Which reverse-splicing fitness value is on record for C82G A120U C150G C169G U176C ?
Marked response: 0.00277

Exam item: Suppose we examine the variant A120U A145G C150G C169U U176A ; what reverse-splicing fitness value has been reported?
Marked response: 0.00909

Exam item: # reverse-splicing fitness lookup, item C82G A120G A145C C150U C169U U176C
Marked response: 0.0138

Exam item: Quick one: reverse-splicing fitness of A111C A120G A145C U176A ?
Marked response: 0.0323

Exam item: Any idea what reverse-splicing fitness was measured for C82U A120U A145C C150G C169G U176A ?
Marked response: 0.00206

Exam item: What value of reverse-splicing fitness has been recorded for this entry: C82G A111U A145G C169A U176C
Marked response: 0.0263

Exam item: Item under review: C82U A111U A120G A145U C150A C169G U176C . Reported reverse-splicing fitness?
Marked response: 0.0136

Exam item: Any idea what its reverse-splicing fitness is? The variant is A145U C150G C169G U176A
Marked response: 0.0118

Exam item: Which reverse-splicing fitness value belongs to C82G A145C C169G U176C ?
Marked response: 0.011

Exam item: Entry C82U A111C C150U C169G has what reverse-splicing fitness?
Marked response: 0.00731

Exam item: Which reverse-splicing fitness value belongs to C82A A120G A145G C169A U176G ?
Marked response: 0.00382

Exam item: Which reverse-splicing fitness reading was recorded for the variant A111U A145C ?
Marked response: 0.974

Exam item: Name the reported reverse-splicing fitness value associated with the variant C82U A111G A145U C150G C169A U176C
Marked response: 0.00932

Exam item: Report reverse-splicing fitness for C82U A145C C150A C169A U176G please.
Marked response: 0.0047

Exam item: For the variant shown here, A111G A120C A145G C150G C169A U176A , give the reported reverse-splicing fitness.
Marked response: 0.00955

Exam item: What reverse-splicing fitness value was documented for this variant, C82G A111C A120U A145G C150G ?
Marked response: 0.0111

Exam item: Given C150G C169G U176A , state its recorded reverse-splicing fitness.
Marked response: 0.00867

Exam item: What value of reverse-splicing fitness has been recorded for this entry: C82G A111C A120C A145G C150U U176A
Marked response: 0.0138

Exam item: GET /values?readout=reverse-splicing fitness&item= C82U A111U A120U A145C C150U C169U U176G
Marked response: 0.00212

Exam item: Query (variant): C82U A111U C150G C169U U176A ; field requested: reverse-splicing fitness
Marked response: 0.00687

Exam item: So what does the record say about reverse-splicing fitness for C82G A111U A120U A145U C150G C169G ?
Marked response: 0.00336

Exam item: What does the record list as reverse-splicing fitness for C82G A120C C150G C169A ?
Marked response: 0.00942

Exam item: Requested read-out: reverse-splicing fitness. Entry: C82G A111C A120U C150G C169G U176A
Marked response: 0.0049

Exam item: Item C82U C150G has what recorded reverse-splicing fitness?
Marked response: 0.051

Exam item: What value of reverse-splicing fitness has been recorded for this entry: C82U A111C A145C C150A C169U
Marked response: 0.00887

Exam item: Record request: reverse-splicing fitness value, item C82U A120G
Marked response: 0.0259

Exam item: Recorded reverse-splicing fitness for A111U A120G A145G C150A C169G U176C , please?
Marked response: 0.0294

Exam item: Which reverse-splicing fitness is listed for A111U A120U C150A C169U ?
Marked response: 0.00846
